// pIC50 lookup, one value per entry
Target: Interleukin-23 receptor (Homo sapiens)
Sequence (Q5VWK5 whole entry): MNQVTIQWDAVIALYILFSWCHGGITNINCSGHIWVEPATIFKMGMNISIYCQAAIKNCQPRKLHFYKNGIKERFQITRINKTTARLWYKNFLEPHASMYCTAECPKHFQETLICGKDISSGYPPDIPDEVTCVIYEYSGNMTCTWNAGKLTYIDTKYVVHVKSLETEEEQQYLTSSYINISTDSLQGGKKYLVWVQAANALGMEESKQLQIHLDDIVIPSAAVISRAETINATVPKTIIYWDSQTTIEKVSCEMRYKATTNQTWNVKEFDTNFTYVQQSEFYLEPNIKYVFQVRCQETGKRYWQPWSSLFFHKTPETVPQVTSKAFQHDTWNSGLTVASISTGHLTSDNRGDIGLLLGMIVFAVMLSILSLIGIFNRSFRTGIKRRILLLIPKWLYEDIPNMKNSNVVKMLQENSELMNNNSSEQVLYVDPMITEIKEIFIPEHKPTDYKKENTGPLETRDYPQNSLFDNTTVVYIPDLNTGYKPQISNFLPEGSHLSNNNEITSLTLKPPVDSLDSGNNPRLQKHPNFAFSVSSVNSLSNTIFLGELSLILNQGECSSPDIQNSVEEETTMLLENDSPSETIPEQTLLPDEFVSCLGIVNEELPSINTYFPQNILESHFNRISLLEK
Test: Inhibition of interleukin-23 binding to human interleukin-23 receptor incubated for 2 hrs by competitive binding ELISA
pIC50: −log10 of the molar value. Where a SMILES comes first, the peptide text is derived from it.

Worked set:
CC(=O)N[C@H]1CCSC[C@@H](C(=O)N[C@@H](Cc2ccc(O)cc2)C(=O)N[C@@H](Cc2c[nH]c3ccccc23)C(=O)N[C@@H](CCC(C)C)C(=O)N[C@@H](CCC(=O)O)C(=O)N[C@@H](CC(N)=O)C(=O)NCC(N)=O)NC(=O)[C@H](CCC(N)=O)NC(=O)[C@H](Cc2c[nH]c3ccccc23)NC(=O)[C@H]([C@@H](C)O)NC(=O)[C@H](CCC(N)=O)NC1=O :: 7.00 to 7.60
CC(=O)NCCCC[C@H](NC(=O)[C@](C)(CCCCN)NC(=O)[C@H](Cc1ccc2ccccc2c1)NC(=O)[C@H](Cc1ccc(OCCN)cc1)NC(=O)[C@@H]1CSCC[C@H](NC(C)=O)C(=O)N[C@@H](CCC(N)=O)C(=O)N[C@@H]([C@@H](C)O)C(=O)N[C@@H](Cc2c[nH]c3ccccc23)C(=O)N[C@@H](CCC(N)=O)C(=O)N1)C(=O)N[C@@H](CC(N)=O)C(=O)NCC(N)=O :: > 8.00
CC(=O)N[C@@H](CS)C(=O)N[C@@H](CCC(=O)O)C(=O)N[C@@H](CC(=O)O)C(=O)N[C@@H](Cc1c[nH]c2ccccc12)C(=O)N[C@@H](CCCCN)C(=O)N[C@@H](CS)C(=O)N[C@@H](Cc1ccc(O)cc1)C(=O)N[C@@H](Cc1c[nH]c2ccccc12)C(=O)N[C@@H](Cc1cnc[nH]1)C(=O)N[C@@H](CCCCN)C(=O)N[C@@H](Cc1ccc(O)cc1)C(=O)NCC(N)=O (Ac-CEDWKCYWHKYG-NH2) :: > 6.30
CC(=O)N[C@@H](CS)C(=O)N[C@@H](CCC(N)=O)C(=O)N[C@H](C(=O)N[C@@H](Cc1c[nH]c2ccccc12)C(=O)N[C@@H](CCC(N)=O)C(=O)N[C@@H](CS)C(=O)N[C@@](C)(Cc1ccccc1)C(=O)N[C@@H](Cc1c[nH]c2ccccc12)C(=O)N[C@@H](CCC(C)C)C(=O)N[C@@H](CCC(=O)O)C(=O)N[C@@H](CC(N)=O)C(=O)NCC(N)=O)[C@@H](C)O :: 4.52
CC(=O)N[C@@H](CS)C(=O)N[C@@H](CCC(N)=O)C(=O)N[C@H](C(=O)N[C@@H](Cc1c[nH]c2ccccc12)C(=O)N[C@@H](CCC(N)=O)C(=O)N[C@@H](CS)C(=O)N[C@@H](Cc1ccc(O)cc1)C(=O)N[C@H](CC(=O)N[C@@H](CCCNC(=N)N)C(=O)N[C@H](C(=O)N[C@@H](CC(N)=O)C(=O)NCC(=O)NCCOCC(=O)N[C@H](CCCCN)C(N)=O)C(C)C)Cc1ccc(O)cc1)[C@@H](C)O :: < 4.52

Report its pIC50 with Interleukin-23 receptor (Homo sapiens) as the test system: CC(=O)N[C@H]1CCSC[C@@H](C(=O)N[C@@H](Cc2ccc(O)cc2)C(=O)N[C@@H](Cc2c[nH]c3ccccc23)C(=O)N[C@@](C)(CC(C)C)C(=O)N[C@@H](CCC(=O)O)C(=O)N[C@@H](CC(N)=O)C(=O)NCC(N)=O)NC(=O)[C@H](CCC(N)=O)NC(=O)[C@H](Cc2c[nH]c3ccccc23)NC(=O)[C@H]([C@@H](C)O)NC(=O)[C@H](CCC(N)=O)NC1=O
7.60 to 8.00

The values you see were collected from ChEMBL document CHEMBL4417631.
